tested on: NUGC-3; experiment: Concentration required for the 50% inhibition of human stomach cancer (NUGC3) cell line growth; type: functional, cell-based
pIC50: −log10 of the molar value.

# smiles_data, assayed_system, bound_type, pIC50
measured = [
    ("COc1ccc2c(ccn2C(=O)c2ccc3c(c2)OCO3)c1", "NUGC-3", "<", 5.00),
    ("COc1cc(C(=O)c2c[nH]c3cccc(OC)c23)cc(OC)c1OC", "NUGC-3", "=", 5.47),
    ("COc1ccc2c(C(=O)c3cc(OC)c(OC)c(OC)c3)c[nH]c2c1", "NUGC-3", "=", 9.00),
    ("COc1ccc(/C=C\\c2cc(OC)c(OC)c(OC)c2)cc1O", "NUGC-3", "<", 5.00),
    ("COc1ccc2[nH]cc(C(=O)c3cc(OC)c(OC)c(OC)c3)c2c1", "NUGC-3", "=", 6.44),
]
